Tested on: ANGPTL3 protein
ASSAY_DETAILS: Example 4: serum ANGPTL3 protein by ELISA in mice
Type: in vivo, C57bl/6 mice
COND: Day 29; 1.0 mg/kg single subcutaneous dose on day 1; serum; female C57bl/6 mice
In the oligonucleotide strings, read from the 5' end, every base follows the letter of its sugar. An asterisk marks phosphorothioate; unmarked linkages are phosphodiester. Other units and linkages are bracketed, terminal groups are in braces. A string of capitals states the bases alone. {NAG37} = tridentate N-acetyl-galactosamine targeting ligand, structure (NAG37)s; [invAb] = inverted abasic unit; m = 2'-O-methyl; f = 2'-fluoro
Would you mind telling me the reported Avg ANGPTL3 (Average ANGPTL3 Protein Normalized to Pre-Treatment and Control) of each entry?
Keep the answer to the number alone.

Param request: Avg ANGPTL3 (Average ANGPTL3 Protein Normalized to Pre-Treatment and Control) | system ANGPTL3 protein | item AD05418: RNAi agent duplex: antisense AM07159-AS, sense AM07158-SS (antisense mU*fU*mU*fGmAfAmUfUmAfAmUfGmUfCmCfAmUfGmGfG*mU; sense {NAG37}*[invAb]*mAmCmCmCmAmUmGmGfAfCfAmUmUmAmAmUmUmCmAmAmA*[invAb])
0.407

Param request: Avg ANGPTL3 (Average ANGPTL3 Protein Normalized to Pre-Treatment and Control) | system ANGPTL3 protein | item AD05487: RNAi agent duplex: antisense AM07233-AS, sense AM07232-SS (antisense mU*fA*mC*fUmGfAmUfCmAfAmAfUmAfUmGfUmUfGmAfG*mU; sense {NAG37}*[invAb]*mAmCmUmCmAmAmCmAfUfAfUmUmUmGmAmUmCmAmGmUmA*[invAb])
0.226

Param request: Avg ANGPTL3 (Average ANGPTL3 Protein Normalized to Pre-Treatment and Control) | system ANGPTL3 protein | item AD05308: RNAi agent duplex: antisense AM07003-AS, sense AM07002-SS (chain 1 mU*fG*mU*fUmGfAmAfUmUfAmAfUmGfUmCfCmAfUmGfG*mA; chain 2 {NAG37}*[invAb]*mUmCmCmAmUmGmGmAfCfAfUmUmAmAmUmUmCmAmAmCmA*[invAb])
0.322

Param request: Avg ANGPTL3 (Average ANGPTL3 Protein Normalized to Pre-Treatment and Control) | system ANGPTL3 protein | item AD05488: RNAi agent duplex: antisense AM07235-AS, sense AM07234-SS (antisense mU*fA*mC*fUmGfAmUfCmAfAmAfUmAfUmGfUmUfGmAfG*mC; sense {NAG37}*[invAb]*mGmCmUmCmAmAmCmAfUfAfUmUmUmGmAmUmCmAmGmUmA*[invAb])
0.124

###

Tested on: ANGPTL3 gene
ASSAY_DETAILS: Example 4: serum total cholesterol in mice
Type: in vivo, C57bl/6 mice
COND: Day 8, 1.0 mg/kg single SC injection on day 1, n=3
In the oligonucleotide strings, read from the 5' end, every base follows the letter of its sugar. An asterisk marks phosphorothioate; unmarked linkages are phosphodiester. Other units and linkages are bracketed, terminal groups are in braces. A string of capitals states the bases alone. {NAG37} = tridentate N-acetyl-galactosamine targeting ligand, structure (NAG37)s; [invAb] = inverted abasic unit; m = 2'-O-methyl; f = 2'-fluoro
Would you mind telling me the reported Avg Total Chol, normalized to pre-treatment and control of each entry?
Keep the answer to the number alone.

Tell me its Avg Total Chol, normalized to pre-treatment and control given AD05488: RNAi agent duplex: antisense AM07235-AS, sense AM07234-SS (antisense mU*fA*mC*fUmGfAmUfCmAfAmAfUmAfUmGfUmUfGmAfG*mC; sense {NAG37}*[invAb]*mGmCmUmCmAmAmCmAfUfAfUmUmUmGmAmUmCmAmGmUmA*[invAb]) as the entry.
0.827

Tell me its Avg Total Chol, normalized to pre-treatment and control given AD05308: RNAi agent duplex: antisense AM07003-AS, sense AM07002-SS (chain 1 mU*fG*mU*fUmGfAmAfUmUfAmAfUmGfUmCfCmAfUmGfG*mA; chain 2 {NAG37}*[invAb]*mUmCmCmAmUmGmGmAfCfAfUmUmAmAmUmUmCmAmAmCmA*[invAb]) as the entry.
0.868

Tell me its Avg Total Chol, normalized to pre-treatment and control given AD05487: RNAi agent duplex: antisense AM07233-AS, sense AM07232-SS (antisense mU*fA*mC*fUmGfAmUfCmAfAmAfUmAfUmGfUmUfGmAfG*mU; sense {NAG37}*[invAb]*mAmCmUmCmAmAmCmAfUfAfUmUmUmGmAmUmCmAmGmUmA*[invAb]) as the entry.
0.728

Tell me its Avg Total Chol, normalized to pre-treatment and control given AD05418: RNAi agent duplex: antisense AM07159-AS, sense AM07158-SS (antisense mU*fU*mU*fGmAfAmUfUmAfAmUfGmUfCmCfAmUfGmGfG*mU; sense {NAG37}*[invAb]*mAmCmCmCmAmUmGmGfAfCfAmUmUmAmAmUmUmCmAmAmA*[invAb]) as the entry.
0.818

Value source: patent US12729377B2
